This collection of values is drawn from patent US20070160725A1.

Recorded inhibition halo diameter, one value per entry.
Test system: Aspergillus niger, CECT 2700
Assay: agar diffusion, inhibition halo
Assay type: cell-based
Settings: 500 ppm
# value in mm; strip the unit string

C=CC1SC=CCS1 (stereo not shown) [2-vinyl-4H-1,3-dithiin]; 10
C=CCSSC=CC[S+]([O-])CC=C (mixture of isomers) [Ajoene, (E)-(Z)-ajoene]; 24

Entry C=CC1CC=CSS1 (stereo not shown) [3-vinyl-4H-1,2-dithiin] , system Aspergillus niger, CECT 2700: what inhibition halo diameter was measured?
10

Query for Aspergillus niger, CECT 2700: what inhibition halo diameter does the record show for C[C@@H]1C/C=C/C=C/C=C/C=C/[C@H](O[C@@H]2O[C@H](C)[C@@H](O)[C@H](N)[C@@H]2O)C[C@@H]2O[C@](O)(C[C@@H](O)C[C@H]3O[C@@H]3/C=C/C(=O)O1)C[C@H](O)[C@H]2C(=O)O [Pimaricin, pimaricin] ?
20

----------
Test system: Escherichia coli, CECT 515
Assay: agar diffusion, inhibition halo
Type: cell-based
Settings: 1000 ppm
This listing pairs molecules with measured inhibition halo diameter.
Form entry: enter the amount, then its unit.

C[C@@H]1C/C=C/C=C/C=C/C=C/[C@H](O[C@@H]2O[C@H](C)[C@@H](O)[C@H](N)[C@@H]2O)C[C@@H]2O[C@](O)(C[C@@H](O)C[C@H]3O[C@@H]3/C=C/C(=O)O1)C[C@H](O)[C@H]2C(=O)O; 0 mm
C=CC1CC=CSS1 (stereo not shown); 0 mm
C=CCSSC=CC[S+]([O-])CC=C (mixture of isomers) [Ajoene, (E)-(Z)-ajoene]; 13 mm

Continue with the next molecule.
Using the record for C=CC1SC=CCS1 (stereo not shown) , report its inhibition halo diameter.
0 mm

----------
molecules and their reported inhibition halo diameter
System: Aspergillus terreus, isolated from the environment of the cheese maturation chamber
Experiment: agar diffusion, inhibition halo
Assay type: cell-based
Details: 1000 ppm
Respond numerically; units are mm and should not be typed.

Would you please look over these solved cases?
C=CC1SC=CCS1 (stereo not shown); 7
C=CCSSC=CC[S+]([O-])CC=C (mixture of isomers) [Ajoene, (E)-(Z)-ajoene]; 40

Need inhibition halo diameter, item C=CC1CC=CSS1 (stereo not shown)
0

May I ask what inhibition halo diameter has been recorded for "C[C@@H]1C/C=C/C=C/C=C/C=C/[C@H](O[C@@H]2O[C@H](C)[C@@H](O)[C@H](N)[C@@H]2O)C[C@@H]2O[C@](O)(C[C@@H](O)C[C@H]3O[C@@H]3/C=C/C(=O)O1)C[C@H](O)[C@H]2C(=O)O" ?
15

----------
Recorded inhibition halo diameter, one value per entry.
System: Penicillium sp, isolated from cheese
Experiment: agar diffusion, inhibition halo
Type: cell-based
Details: 1000 ppm
Procedure: In order to evaluate the antimicrobial activity the agar diffusion technique with cellulose discs of 6 mm in diameter impregnated with the different active ingredient testing doses was used. Antifungal capacity was assessed against suspensions of […], harvested from pure cultures of the selected molds and against suspensions of 10^7 cells/ml for the case of yeasts. The culture medium used was the 2% Sabouraud-glucose medium (Merck). […]
Report the value in mm with no unit label.

Examples with their reported inhibition halo diameter follow.
C=CCSSC=CC[S+]([O-])CC=C (mixture of isomers) [Ajoene, (E)-(Z)-ajoene]; 40
C=CC1SC=CCS1 (stereo not shown) [2-vinyl-4H-1,3-dithiin]; 12
C[C@@H]1C/C=C/C=C/C=C/C=C/[C@H](O[C@@H]2O[C@H](C)[C@@H](O)[C@H](N)[C@@H]2O)C[C@@H]2O[C@](O)(C[C@@H](O)C[C@H]3O[C@@H]3/C=C/C(=O)O1)C[C@H](O)[C@H]2C(=O)O [Pimaricin, pimaricin]; 26

Give the measured inhibition halo diameter of C=CC1CC=CSS1 (stereo not shown) [3-vinyl-4H-1,2-dithiin] .
10
